Target: truncated form of PTP1 B (corresponding to the first 321 amino acids) (Homo sapiens)
Construct: truncated form of PTP1 B (corresponding to the first 321 amino acids)
Sequence (P18031 1-321): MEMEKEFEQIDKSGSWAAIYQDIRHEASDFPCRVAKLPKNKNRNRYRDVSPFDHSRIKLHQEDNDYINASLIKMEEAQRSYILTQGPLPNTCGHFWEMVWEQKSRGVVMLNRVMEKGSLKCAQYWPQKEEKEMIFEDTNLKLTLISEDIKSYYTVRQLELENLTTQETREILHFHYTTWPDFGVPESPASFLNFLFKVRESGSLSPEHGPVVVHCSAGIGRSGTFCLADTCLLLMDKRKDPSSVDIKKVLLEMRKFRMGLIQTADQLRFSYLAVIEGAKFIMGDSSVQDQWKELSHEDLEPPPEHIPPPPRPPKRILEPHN
Assay: Inhibition of PTP1B (p-nitrophenyl phosphate substrate, enzyme kinetic analysis)
Settings: truncated PTP1B expressed in E. coli; substrate p-nitrophenyl phosphate 0.16 to 10 mM; 50 mM HEPES pH 7.0; 60 minutes; read-out: PTP1B K1 values
pKi: −log10 of the molar value.
observed_property: pKi

compound | pKi
O=C(O)C(=O)Nc1sc2c(c1C(=O)O)CCOC2Cn1c(=O)c2ccccc2[s+]1[O-] (stereo not shown) | 5.89
O=C(O)C(=O)Nc1sc2c(c1C(=O)O)CCOC2CN1C(=O)c2cc3c(cc2C1=O)OCO3 (stereo not shown) | 5.44

1: O=C(O)C(=O)Nc1sc2c(c1C(=O)O)CC(CN1C(=O)c3cccc(O)c3C1=O)OC2 (stereo not shown)
2: O=C(O)C(=O)Nc1sc2c(c1C(=O)O)CCOC2COC1=NS(=O)(=O)c2ccccc21 (stereo not shown)
Between 1 and 2 , which one shows the larger pKi value? Give the chosen item's label as your response.
2
(2: 6.10, 1: 5.82)
